tgt: Neu5Ac(a2-3)Gal(b1-4)GlcNAc(b1-3)Gal(b1-4)GlcNAc(b1-2)Man(a1-3)[Neu5Ac(a2-3)Gal(b1-4)GlcNAc(b1-3)Gal(b1-4)GlcNAc(b1-2)Man(a1-6)]Man(b1-4)GlcNAc(b1-4)GlcNAc
measurement.protocol: glycan array binding signal (z-score within array); higher = stronger binding
conditions.used: glycan notation: IUPAC condensed, linker removed
Only a selection was taken, and the strongest signals are over-represented in it overall.
endpoint: glycan array binding signal (z-score)
Lab note: write the figure by itself, no unit.

binder="Tp0751, 83732 (protein) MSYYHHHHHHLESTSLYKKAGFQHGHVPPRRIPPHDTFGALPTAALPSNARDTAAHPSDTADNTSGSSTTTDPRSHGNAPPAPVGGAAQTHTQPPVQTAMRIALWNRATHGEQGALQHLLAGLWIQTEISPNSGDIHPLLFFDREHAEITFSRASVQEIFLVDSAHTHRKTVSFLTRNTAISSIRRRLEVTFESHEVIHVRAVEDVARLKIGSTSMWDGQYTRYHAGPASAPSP" endpoint="glycan array binding signal (z-score)" number=0.542

// below: glycan array binding signal (z-score) requested for another binder
Request: Can you look up the measured glycan array binding signal (z-score) of Epf (Streptococcus pyogenes) (protein) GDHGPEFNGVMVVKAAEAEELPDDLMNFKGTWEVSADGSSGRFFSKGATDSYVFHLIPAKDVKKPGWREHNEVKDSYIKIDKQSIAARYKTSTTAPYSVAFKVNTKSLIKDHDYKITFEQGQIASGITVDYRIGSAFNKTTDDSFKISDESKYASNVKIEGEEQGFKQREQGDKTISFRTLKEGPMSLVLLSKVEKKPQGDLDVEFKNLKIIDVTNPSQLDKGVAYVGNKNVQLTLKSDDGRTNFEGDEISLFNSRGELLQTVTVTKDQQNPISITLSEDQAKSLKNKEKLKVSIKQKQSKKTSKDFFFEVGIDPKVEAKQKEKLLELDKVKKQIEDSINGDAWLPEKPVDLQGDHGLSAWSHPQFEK for me?
Response: 1.33
